# Experiment: A549 cell viability effects, profiling panel, calcein-AM fluorescence, 48 h, basal (AID 1162); further: test concentration not given here
# Applied conditions: higher = more signal
Listed below: z-score values for each entry.
Response field accepts a number only; no unit should be typed.

Worked set:
CO[C@@H]1COC(=O)[C@H](C)NC(=O)[C@@H](C)COC(=O)CCC[C@H]1C
-0.0857
C=C(CCCC)C(=O)CC[C@@H](OC(C)=O)c1cccc(OCCO)c1
-0.985
CCCNC(=O)OC[C@H]1O[C@H](CCON=C2[C@H]3CCn4c(=O)n(-c5ccccc5)c(=O)n4[C@H]3[C@H](O)[C@@H]3O[C@H]23)C=C[C@@H]1Oc1ccc(OC)cc1
-0.343
CCc1cc2c(nc1CC)CCN(CCC(C)=NOC[C@@H](O)[C@H]1O[C@@H]3OC(C)(C)O[C@@H]3[C@H]1O)C2
0.719

What z-score value was documented for this compound, `CO[C@H]1COC(=O)[C@H](C)COC(=O)CC=C[C@@H](C)[C@H](OC)COC(=O)CC=C[C@@H]1C` ?
0.593

Next: `O=C1[C@H]2[C@H]3[C@H](O)[C@H](O)CC(=NO[C@@H]4O[C@H](CO)[C@@H](O)[C@H](O)[C@H]4O)[C@@H]3CC[C@H]2C(=O)N1Cc1ccc2c(c1)OCO2`
-0.575

What do you get for `CC(C)(C)OC(=O)CC[C@]1(C(=O)NCc2ccccc2)N=C(c2ccc(OCCCO)cc2)O[C@H]1c1ccccc1` ?
-1.02

* * *

# Experiment: small-molecule binders of probe aLefty1, primary screen, biochemical, small-molecule microarray, 635/667 nm fluorescence (AID 1153);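 further: score merges spot fluorescence with signal-to-noise ratio from the scanned slide images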
# Applied conditions: higher = more signal
Field: class. Source value: composite z-score. Ranges: 1 (below -0.1), 2 (-0.1 to below 0.1), 3 (0.1 or more)

CN1C(=O)C2C=CC(C(O)C(c3ccccc3)c3ccccc3)N(NC(=O)OC(C)(C)C)C2C1=O (centres undefined)
3
CC(C)=CCCC(C)=CCON=C1C[C@@H](O)[C@@H](O)[C@@H]2[C@@H]3C(=O)N(C[C@@H]4CCCO4)C(=O)[C@@H]3CC[C@@H]12
2
C[C@H]1CC[C@@H](C(=O)O)N[C@@H]1c1ccc(C#CCN(C)C)cc1
1
CCOC(=O)CCN1C(=O)[C@H]2[C@H]3[C@H](O)[C@H](O)CC(=NOCc4ccccc4)[C@@H]3CC[C@H]2C1=O
2
COCCOC(=O)N1C(=O)[C@@]2(c3ccccc31)[C@H](C(N)=O)[C@H]1C(=O)O[C@H](c3ccccc3)[C@H](c3ccccc3)N1[C@@H]2c1ccccc1OCCO
3

# bin label for N#Cc1ccc(NN2C(C(O)c3cccc4ccccc34)C=CC3C(=O)N(c4ccccc4)C(=O)C32)cc1 (centres undefined)
3

Another molecule to check: `CCCNC(=O)OC[C@H]1O[C@H](CCON=CC[C@@H]2C=C[C@H](OC(C)=O)[C@@H](COC(C)=O)O2)C=C[C@@H]1Oc1ccc(OC)cc1`
1

* * *

# Experiment: HepG2 liver cancer cell viability effects, profiling panel, resazurin fluorescence, 24 h, PK04 Diversity Set (AID 1172); further: test concentration not given here
# Applied conditions: higher = more signal
Measured z-score, listed per entry for reference.
Enter the number alone.

Completed entries (count: 3):
CC=CC1=C(CO)[C@H](O)[C@H]2O[C@H]2[C@H]1O
-0.557
CO[C@@H]1COC(=O)CCC[C@@H](C)[C@H](OC)COC(=O)[C@H](Cc2ccccc2)NC(=O)CC=C[C@H]1C
0.229
COc1ccc(O[C@H]2C=C[C@@H](c3ccccc3)O[C@@H]2COC(=O)CCC(C)=NOC[C@@H](C)[C@H](OCc2ccccc2)C(C)C)cc1
0.85

Now for the compound whose z-score we want.
// returns reported z-score for input `CO[C@H]1COC(=O)[C@H](C)NC(=O)[C@@H](C)COC(=O)CC=C[C@@H]1C`
-0.279
